B1: F1*; the commonest letter at each place (parent)
chain: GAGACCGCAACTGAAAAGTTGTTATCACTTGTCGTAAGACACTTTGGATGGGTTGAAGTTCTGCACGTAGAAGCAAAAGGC

Variants of: B1
Experiment: fraction ligated after 30 min (ligated reads / total reads); higher = more ligase activity
Conditions: with F1*sub RNA substrate (template-directed ligation), 42 °C
PROPERTY_NAME: fraction ligated
// keep it numeric: no unit symbol after the value

Below: 10 variants and their reported fraction ligated.
## Input Quick check: fraction ligated of T29G A48G ?
## Output 0.805

## Input Quick check: fraction ligated of A37G T44A ?
## Output 0.839

## Input Quick check: fraction ligated of C40A G55C ?
## Output 0.504

## Input Quick check: fraction ligated of T29G T32G ?
## Output 0.832

## Input Quick check: fraction ligated of A27G C42A ?
## Output 0.827

## Input Quick check: fraction ligated of G31C T44G ?
## Output 0.781

## Input Quick check: fraction ligated of T23A T35C ?
## Output 0.811

## Input Quick check: fraction ligated of G50C A57G ?
## Output 0.104

## Input Quick check: fraction ligated of T29C T45G ?
## Output 0.239

## Input Quick check: fraction ligated of A37T C40A ?
## Output 0.809

Continuing:
## Input Quick check: fraction ligated of A27C G31A ?
## Output 0.824

## Input Quick check: fraction ligated of A41T T43C ?
## Output 0.773

## Input Quick check: fraction ligated of A37C A57C ?
## Output 0.819
